Hello, the source for this data is patent US4200575A, in case you need it.

- Tested on: S. aureus 209P
- Test Method Notes: Minimal inhibitory concentration (M.I.C.), agar dilution method
- Format: cell-based, Staphylococcus aureus
- Test Conditions: TSA, inoculum 10^7 /ml
So basically: minimal inhibitory concentration (M.I.C.) at 2 or higher? That is true (1). Lower than 2? That is false (0).

Example entries begin here.
- CCCCNC(=O)O/N=C(\C(=O)NC1C(=O)N2C(C(=O)O)=C(C)CSC12)c1csc(=N)[nH]1 (stereo not shown): true (1)
- CCCCNC(=O)O/N=C(\C(=O)NC1C(=O)N2C(C(=O)O)=C(COC(C)=O)CSC12)c1csc(=N)[nH]1 (stereo not shown): false (0)
- CNC(=O)O/N=C(\C(=O)NC1C(=O)N2C(C(=O)O)=C(CSc3nnc(CO)n3C)CSC12)c1csc(=N)[nH]1 (stereo not shown): true (1)
- CC1=C(C(=O)O)N2C(=O)C(NC(=O)/C(=N\OC(=O)NC(C)C)c3csc(=N)[nH]3)C2SC1 (stereo not shown): true (1)
- CCCNC(=O)O/N=C(\C(=O)NC1C(=O)N2C(C(=O)O)=C(COC(C)=O)CSC12)c1csc(=N)[nH]1 (stereo not shown): false (0)

Q: Check if minimal inhibitory concentration (M.I.C.) >= 2 (inclusive). Item: CNC(=O)O/N=C(\C(=O)NC1C(=O)N2C(C(=O)O)=C(CSc3nc(C)ns3)CSC12)c1csc(=N)[nH]1 (stereo not shown)
A: false (0)

Q: Say whether CC(C)NC(=O)O/N=C(\C(=O)NC1C(=O)N2C(C(=O)O)=C(CSc3nnnn3C)CSC12)c1csc(=N)[nH]1 (stereo not shown) shows minimal inhibitory concentration (M.I.C.) of 2 or more.
A: false (0)
